Cited source: ChEMBL document CHEMBL6096680

Assay: Binding affinity to RING1B (10 to 116 residues)/PCGF1 (30 to 138 residues) (unknown origin) assessed as dissociation constant by ITC analysis
Design: species or system Homo sapiens
Quantity: Kd (nM)
Number in nM, nothing else.

### Prompt What value of measured Kd is listed for CC(C)c1c(-c2cc(F)cc3[nH]ccc23)[nH]c(C(=O)O)c1-c1c(Cl)ccc2[nH]ccc12 ?
### Response 1700

---

Assay: Binding affinity to RING1A (7 to 113 residues)/BMI1 (1 to 104 residues) (unknown origin) extracted from Escherichia coli BL21 (DE3) cells assessed as dissociation constant by ITC analysis
Design: species or system Homo sapiens
Quantity: Kd
# answer = value followed by unit

### Prompt What value of measured Kd is listed for CC(C)c1c(-c2cc(F)cc3[nH]ccc23)[nH]c(C(=O)O)c1-c1c(Cl)ccc2[nH]ccc12 ?
### Response 1700 nM

---

Organism: Homo sapiens
Test: Binding affinity to 15N-labeled RING1B (10 to 116 residues)/BMI1 (1 to 104 residues) (unknown origin) extracted from Escherichia coli BL21 (DE3) cells assessed as ratio of chemical shift perturbations at 1:2 compound concentration ration by NMR binding analysis
Below, each of the compounds is paired with its reported Ratio value.
Form rule: numeric answer, no unit written next to it.

CC(C)c1c(-c2cccc3[nH]ccc23)[nH]c(C(=O)O)c1-c1cccc2[nH]ccc12: 0.95
CC(CO)c1c(-c2cccc3[nH]ccc23)[nH]c(C(=O)O)c1-c1cccc2[nH]ccc12 (stereo not drawn): 0.62

Continue with the next compound.
### Prompt What value of measured Ratio is listed for CCc1cc(-c2c(C(=O)O)[nH]c(-c3cc(F)cc4[nH]ccc34)c2C(C)C)c2cc[nH]c2c1 ?
### Response 0.92
